Test: Ratio of unbound brain concentration to unbound plasma concentration in po dosed Cynomolgus monkey
Assay type: ADME, organism-based, Macaca fascicularis
Conditions: brain and plasma, read-out: K(p,uu,brain)
outcome measure: Kp uu

                                   molecule  result
0  Cc1nc(-c2cnn(C)c2-c2ccc(C(F)(F)F)cn2)c2c(N3CCC3)ncnn12 [PF-05180999]     0.6

====

Form field: CLint scaled (one value per entry).
Test: Apparent intrinsic clearance in human liver microsomes
Assay type: ADME, microsome
Conditions: read-out: CLH(app)
outcome measure: CLint scaled (mL/min/kg)

>>> df
                                item_smiles  result
0  Cc1nc(-c2cnn(C)c2-c2ccc(Cl)cn2)c2c(N3CCC3)ncnn12      13
1  Cc1nc(-c2cnn(C)c2-c2ccc(C(F)(F)F)cc2)c2c(N3CCC3)ncnn12      93
2  CNc1ncnn2c(C)nc(-c3cnn(C)c3-c3ccc(C(F)(F)F)cc3)c12      33
3  Cc1nc(-c2cnn(C)c2-c2ccc(C(F)(F)F)cn2)c2c(N3CCC3)ncnn12      52
4  CNc1ncnn2c(C)nc(-c3cnn(C)c3-c3ccc(C(F)(F)F)cn3)c12     9.5

====

Test: Terminal half life in Wistar Han rat at 5 mg/kg, po administered via gavage by LC-MS/MS analysis
Type: ADME, organism-based
Details: in vivo, read-out: beta t1/2 (converted)
outcome measure: half-life

>>> print(df.to_string())
                                item_smiles  result
0  Cc1nc(-c2cnn(C)c2-c2ccc(C(F)(F)F)cn2)c2c(N3CCC3)ncnn12   1.4 h

====

Experiment: Volume of distribution at steady state in beagle dog at 0.3 mg/kg, iv by LC-MS/MS analysis
Assay type: ADME, organism-based, Canis lupus familiaris
Conditions: in vivo, read-out: Vdss
outcome measure: Vd (L/kg)

>>> df
                                item_smiles  outcome_measure  output_unit  result
0  Cc1nc(-c2cnn(C)c2-c2ccc(C(F)(F)F)cn2)c2c(N3CCC3)ncnn12               Vd         L/kg    2.89

====

Assay: Terminal half life in Wistar Han rat at 1 mg/kg, iv by LC-MS/MS analysis
Assay type: ADME, organism-based
Details: in vivo, read-out: beta t1/2 (converted)
outcome measure: half-life (h)

                                item_smiles  outcome_measure  result
0  Cc1nc(-c2cnn(C)c2-c2ccc(C(F)(F)F)cn2)c2c(N3CCC3)ncnn12        half-life     1.1

====

Assay: Volume of distribution at steady state in Wistar Han rat at 1 mg/kg, iv by LC-MS/MS analysis
Assay type: ADME, organism-based
Details: in vivo, read-out: Vdss
outcome measure: Vd (L/kg)

>>> df
                                   molecule  outcome_measure  result
0  Cc1nc(-c2cnn(C)c2-c2ccc(C(F)(F)F)cn2)c2c(N3CCC3)ncnn12 [PF-05180999]               Vd    3.94

====

Assay: Oral bioavailability in Wistar Han rat at 5 mg/kg administered via gavage by LC-MS/MS analysis
Assay type: ADME, organism-based
Conditions: in vivo
outcome measure: bioavailability (%)

>>> print(df.to_string())
                                item_smiles  outcome_measure  output_unit  result
0  Cc1nc(-c2cnn(C)c2-c2ccc(C(F)(F)F)cn2)c2c(N3CCC3)ncnn12  bioavailability            %      44

Data credit: ChEMBL document CHEMBL4024790
